system: Eμ-Mycp19^Arf−/− mouse lymphoma cells; assay: Drug treatment and FACS viability (propidium iodide) to determine LD80-90; type: cell-based; conditions: Mus musculus; read-out: Concentration used (LD80-90)

cpd-smiles	measurement-units	IC (80-90)
CC[C@@]1(O)C(=O)OCc2c1cc1n(c2=O)Cc2cc3ccccc3nc2-1	µM	0.0004
O=C(O)CCCc1ccc(N(CCCl)CCCl)cc1	µM	6.6
CC[C@H](C)[C@H](NC(=O)[C@H]([C@@H](C)CC)N(C)C(C)=O)C(=O)N[C@H](C(=O)N[C@@H](CC(C)C)C(=O)[C@@]1(C)CO1)[C@@H](C)O	µM	0.045
O=NN(CCCl)C(=O)NCCCl	µM	26.7

====

Measured IC (80-90) of individual entries
test system: Eμ-Mycp19^Arf−/− mouse lymphoma cells; experiment: Drug treatment and FACS viability (propidium iodide) to determine LD80-90; format: cell-based; conditions: Mus musculus; read-out: Concentration used (LD80-90)
reported-endpoint: IC (80-90) (µM)

compound	system-tested	reported-endpoint	result-value
C[C@@]12C(=O)OC(=O)[C@]1(C)[C@H]1CC[C@@H]2O1 [Cantharidin]	Eμ-Mycp19^Arf−/− mouse lymphoma cells	IC (80-90)	10.7
COc1cccc2c1C(=O)c1c(O)c3c(c(O)c1C2=O)C[C@@](O)(C(C)=O)C[C@@H]3O[C@H]1C[C@H](N)[C@H](O)[C@H](C)O1 [Daunorubicin]	Eμ-Mycp19^Arf−/− mouse lymphoma cells	IC (80-90)	0.0225
CN1C(=O)[C@]23CC4=CC=C[C@H](O)[C@H]4N2C(=O)[C@@]1(CO)SS3 [Gliotoxin]	Eμ-Mycp19^Arf−/− mouse lymphoma cells	IC (80-90)	0.3
N[C@@H](Cc1ccc(N(CCCl)CCCl)cc1)C(=O)O [Melphalan]	Eμ-Mycp19^Arf−/− mouse lymphoma cells	IC (80-90)	3.9
Cn1c(CCCC(=O)O)nc2cc(N(CCCl)CCCl)ccc21 [Bendamustine]	Eμ-Mycp19^Arf−/− mouse lymphoma cells	IC (80-90)	110
Nc1nc(F)nc2c1ncn2[C@@H]1O[C@H](CO)[C@@H](O)[C@@H]1O [Fludarabine]	Eμ-Mycp19^Arf−/− mouse lymphoma cells	IC (80-90)	3.8
CC[C@H](CO)Nc1nc(NCc2ccccc2)c2ncn(C(C)C)c2n1 [Roscovitine]	Eμ-Mycp19^Arf−/− mouse lymphoma cells	IC (80-90)	26.7
